Assay: Cytotoxicity against HEK293T cells after 48 hrs by MTS assay
Assay type: cell-based, HEK-293T
Conditions: human

>  <CHEM_SMILES>
CN(C)C(=N)c1ccc2cc(-c3ccc(Oc4ccc(-c5cc6ccc(C(=N)N(C)C)cc6[nH]5)cc4)cc3)[nH]c2c1

>  <CC50 at 48 h (µg/mL)>
21.6

$$$$
>  <CHEM_SMILES>
N=C(c1ccc2cc(-c3ccc(Oc4ccc(-c5cc6ccc(C(=N)N7CCC7)cc6[nH]5)cc4)cc3)[nH]c2c1)N1CCC1

>  <CC50 at 48 h (µg/mL)>
21.6

$$$$
>  <CHEM_SMILES>
N=C(c1ccc2cc(-c3ccc(Oc4ccc(-c5cc6ccc(C(=N)N7CCCC7)cc6[nH]5)cc4)cc3)[nH]c2c1)N1CCCC1

>  <CC50 at 48 h (µg/mL)>
3.2

$$$$
>  <CHEM_SMILES>
N=C(c1ccc2cc(-c3ccc(Oc4ccc(-c5cc6ccc(C(=N)N7CCC(N8CCCC8)CC7)cc6[nH]5)cc4)cc3)[nH]c2c1)N1CCC(N2CCCC2)CC1

>  <CC50 at 48 h (µg/mL)>
1.1

$$$$

----------
System: Klebsiella pneumoniae
Experiment: Antibacterial activity against extended-spectrum beta-lactamase-positive Klebsiella pneumoniae 09-25 by agar dilution method
Assay type: functional
MIC reference

>  <COMPOUND>
N=C(c1ccc2cc(-c3ccc(Oc4ccc(-c5cc6ccc(C(=N)N7CCCC7)cc6[nH]5)cc4)cc3)[nH]c2c1)N1CCCC1

>  <TARGET_SYSTEM>
Klebsiella pneumoniae

>  <MIC>
64 to 128 µg/mL

$$$$
>  <COMPOUND>
N=C(NC1CCCC1)c1ccc2cc(-c3ccc(Oc4ccc(-c5cc6ccc(C(=N)NC7CCCC7)cc6[nH]5)cc4)cc3)[nH]c2c1

>  <TARGET_SYSTEM>
Klebsiella pneumoniae

>  <MIC>
> 128 µg/mL

$$$$
>  <COMPOUND>
CC1CCN(C(=N)c2ccc3cc(-c4ccc(Oc5ccc(-c6cc7ccc(C(=N)N8CCC(C)CC8)cc7[nH]6)cc5)cc4)[nH]c3c2)CC1

>  <TARGET_SYSTEM>
Klebsiella pneumoniae

>  <MIC>
> 128 µg/mL

$$$$
>  <COMPOUND>
N=C(c1ccc2cc(-c3ccc(Oc4ccc(-c5cc6ccc(C(=N)N7CCOCC7)cc6[nH]5)cc4)cc3)[nH]c2c1)N1CCOCC1

>  <TARGET_SYSTEM>
Klebsiella pneumoniae

>  <MIC>
> 128 µg/mL

$$$$
>  <COMPOUND>
CCC(C)NC(=N)c1ccc2cc(-c3ccc(Oc4ccc(-c5cc6ccc(C(=N)NC(C)CC)cc6[nH]5)cc4)cc3)[nH]c2c1 (centres undefined)

>  <TARGET_SYSTEM>
Klebsiella pneumoniae

>  <MIC>
32 µg/mL

$$$$
>  <COMPOUND>
C[C@H]1COc2c(N3CCN(C)CC3)c(F)cc3c(=O)c(C(=O)O)cn1c23.C[C@H]1COc2c(N3CCN(C)CC3)c(F)cc3c(=O)c(C(=O)O)cn1c23.O

>  <TARGET_SYSTEM>
Klebsiella pneumoniae

>  <MIC>
4 µg/mL

$$$$
>  <COMPOUND>
N=C(NC1CCC1)c1ccc2cc(-c3ccc(Oc4ccc(-c5cc6ccc(C(=N)NC7CCC7)cc6[nH]5)cc4)cc3)[nH]c2c1

>  <TARGET_SYSTEM>
Klebsiella pneumoniae

>  <MIC>
> 128 µg/mL

$$$$
>  <COMPOUND>
N=C(NC1CCCCC1)c1ccc2cc(-c3ccc(Oc4ccc(-c5cc6ccc(C(=N)NC7CCCCC7)cc6[nH]5)cc4)cc3)[nH]c2c1

>  <TARGET_SYSTEM>
Klebsiella pneumoniae

>  <MIC>
128 µg/mL

$$$$
>  <COMPOUND>
CCCNC(=N)c1ccc2cc(-c3ccc(Oc4ccc(-c5cc6ccc(C(=N)NCCC)cc6[nH]5)cc4)cc3)[nH]c2c1

>  <TARGET_SYSTEM>
Klebsiella pneumoniae

>  <MIC>
> 128 µg/mL

$$$$
>  <COMPOUND>
CCNC(=N)c1ccc2cc(-c3ccc(Oc4ccc(-c5cc6ccc(C(=N)NCC)cc6[nH]5)cc4)cc3)[nH]c2c1

>  <TARGET_SYSTEM>
Klebsiella pneumoniae

>  <MIC>
64 µg/mL

$$$$
>  <COMPOUND>
N=C(NC1CC1)c1ccc2cc(-c3ccc(Oc4ccc(-c5cc6ccc(C(=N)NC7CC7)cc6[nH]5)cc4)cc3)[nH]c2c1

>  <TARGET_SYSTEM>
Klebsiella pneumoniae

>  <MIC>
> 128 µg/mL

$$$$
>  <COMPOUND>
N=C(c1ccc2cc(-c3ccc(Oc4ccc(-c5cc6ccc(C(=N)N7CCC(N8CCCC8)CC7)cc6[nH]5)cc4)cc3)[nH]c2c1)N1CCC(N2CCCC2)CC1

>  <TARGET_SYSTEM>
Klebsiella pneumoniae

>  <MIC>
128 µg/mL

$$$$
>  <COMPOUND>
c1cc(-c2cc3ccc(C4=NCCCN4)cc3[nH]2)ccc1Oc1ccc(-c2cc3ccc(C4=NCCCN4)cc3[nH]2)cc1

>  <TARGET_SYSTEM>
Klebsiella pneumoniae

>  <MIC>
≥ 128 µg/mL

$$$$
>  <COMPOUND>
CC1CC(C)CN(C(=N)c2ccc3cc(-c4ccc(Oc5ccc(-c6cc7ccc(C(=N)N8CC(C)CC(C)C8)cc7[nH]6)cc5)cc4)[nH]c3c2)C1 (centres undefined)

>  <TARGET_SYSTEM>
Klebsiella pneumoniae

>  <MIC>
> 128 µg/mL

$$$$

----------
Tested on: Klebsiella pneumoniae
Test: Antibacterial activity against extended-spectrum beta-lactamase-positive Klebsiella pneumoniae 09-25 by agar dilution method
Assay type: functional
MIC reference

>  <CHEM_SMILES>
CC(C)NC(=N)c1ccc2cc(-c3ccc(Oc4ccc(-c5cc6ccc(C(=N)NC(C)C)cc6[nH]5)cc4)cc3)[nH]c2c1

>  <TARGET_SYSTEM>
Klebsiella pneumoniae

>  <MIC>
64 µg/mL

$$$$
>  <CHEM_SMILES>
CCC(CC)NC(=N)c1ccc2cc(-c3ccc(Oc4ccc(-c5cc6ccc(C(=N)NC(CC)CC)cc6[nH]5)cc4)cc3)[nH]c2c1

>  <TARGET_SYSTEM>
Klebsiella pneumoniae

>  <MIC>
16 µg/mL

$$$$
>  <CHEM_SMILES>
N=C(c1ccc2cc(-c3ccc(Oc4ccc(-c5cc6ccc(C(=N)N7CCCCC7)cc6[nH]5)cc4)cc3)[nH]c2c1)N1CCCCC1

>  <TARGET_SYSTEM>
Klebsiella pneumoniae

>  <MIC>
> 128 µg/mL

$$$$
>  <CHEM_SMILES>
CNC(=N)c1ccc2cc(-c3ccc(Oc4ccc(-c5cc6ccc(C(=N)NC)cc6[nH]5)cc4)cc3)[nH]c2c1

>  <TARGET_SYSTEM>
Klebsiella pneumoniae

>  <MIC>
> 128 µg/mL

$$$$

----------
System: Escherichia coli
Test: Antibacterial activity against extended-spectrum beta-lactamase-positive Escherichia coli 09-1 by agar dilution method
Format: functional
ASSAY_ENDPOINT: MIC (µg/mL)

>  <COMPOUND>
CCC(C)NC(=N)c1ccc2cc(-c3ccc(Oc4ccc(-c5cc6ccc(C(=N)NC(C)CC)cc6[nH]5)cc4)cc3)[nH]c2c1 (centres undefined)

>  <OPERATOR>
=

>  <READOUT_VALUE>
32

$$$$
>  <COMPOUND>
N=C(c1ccc2cc(-c3ccc(Oc4ccc(-c5cc6ccc(C(=N)N7CCC7)cc6[nH]5)cc4)cc3)[nH]c2c1)N1CCC1

>  <OPERATOR>
=

>  <READOUT_VALUE>
64

$$$$
>  <COMPOUND>
CCNC(=N)c1ccc2cc(-c3ccc(Oc4ccc(-c5cc6ccc(C(=N)NCC)cc6[nH]5)cc4)cc3)[nH]c2c1

>  <OPERATOR>
=

>  <READOUT_VALUE>
64

$$$$
>  <COMPOUND>
C[C@H]1COc2c(N3CCN(C)CC3)c(F)cc3c(=O)c(C(=O)O)cn1c23.C[C@H]1COc2c(N3CCN(C)CC3)c(F)cc3c(=O)c(C(=O)O)cn1c23.O [LEVOFLOXACIN]

>  <OPERATOR>
=

>  <READOUT_VALUE>
16

$$$$
>  <COMPOUND>
N=C(c1ccc2cc(-c3ccc(Oc4ccc(-c5cc6ccc(C(=N)N7CCOCC7)cc6[nH]5)cc4)cc3)[nH]c2c1)N1CCOCC1

>  <OPERATOR>
=

>  <READOUT_VALUE>
128

$$$$
>  <COMPOUND>
c1cc(-c2cc3ccc(C4=NCCCN4)cc3[nH]2)ccc1Oc1ccc(-c2cc3ccc(C4=NCCCN4)cc3[nH]2)cc1

>  <OPERATOR>
=

>  <READOUT_VALUE>
64

$$$$
>  <COMPOUND>
CN(C)C(=N)c1ccc2cc(-c3ccc(Oc4ccc(-c5cc6ccc(C(=N)N(C)C)cc6[nH]5)cc4)cc3)[nH]c2c1

>  <OPERATOR>
=

>  <READOUT_VALUE>
8

$$$$
>  <COMPOUND>
CC1CCN(C(=N)c2ccc3cc(-c4ccc(Oc5ccc(-c6cc7ccc(C(=N)N8CCC(C)CC8)cc7[nH]6)cc5)cc4)[nH]c3c2)CC1

>  <OPERATOR>
>

>  <READOUT_VALUE>
128

$$$$
>  <COMPOUND>
CNC(=N)c1ccc2cc(-c3ccc(Oc4ccc(-c5cc6ccc(C(=N)NC)cc6[nH]5)cc4)cc3)[nH]c2c1

>  <OPERATOR>
=

>  <READOUT_VALUE>
128

$$$$
>  <COMPOUND>
N=C(c1ccc2cc(-c3ccc(Oc4ccc(-c5cc6ccc(C(=N)N7CCC(N8CCCC8)CC7)cc6[nH]5)cc4)cc3)[nH]c2c1)N1CCC(N2CCCC2)CC1

>  <OPERATOR>
=

>  <READOUT_VALUE>
64

$$$$
>  <COMPOUND>
CC1CC(C)CN(C(=N)c2ccc3cc(-c4ccc(Oc5ccc(-c6cc7ccc(C(=N)N8CC(C)CC(C)C8)cc7[nH]6)cc5)cc4)[nH]c3c2)C1 (centres undefined)

>  <OPERATOR>
>

>  <READOUT_VALUE>
128

$$$$
>  <COMPOUND>
N=C(NC1CC1)c1ccc2cc(-c3ccc(Oc4ccc(-c5cc6ccc(C(=N)NC7CC7)cc6[nH]5)cc4)cc3)[nH]c2c1

>  <OPERATOR>
=

>  <READOUT_VALUE>
128

$$$$
>  <COMPOUND>
CCC(CC)NC(=N)c1ccc2cc(-c3ccc(Oc4ccc(-c5cc6ccc(C(=N)NC(CC)CC)cc6[nH]5)cc4)cc3)[nH]c2c1

>  <OPERATOR>
=

>  <READOUT_VALUE>
16

$$$$
>  <COMPOUND>
CCCNC(=N)c1ccc2cc(-c3ccc(Oc4ccc(-c5cc6ccc(C(=N)NCCC)cc6[nH]5)cc4)cc3)[nH]c2c1

>  <OPERATOR>
>

>  <READOUT_VALUE>
128

$$$$
